Test system: Aspergillus fumigatus
assay.details: In vitro antifungal activity against Aspergillus fumigatus 48238E
Type: functional
Rule: MFC below 8 µg/mL gives Yes, anything at or above gives No.

A selection of reference data follows.
# molecule, assayed.target, answer.label
measured = [
    ("C/C(=N\\OC(Cn1ccnc1)c1ccc(F)cc1F)c1cc(F)ccc1F (stereo unspecified)", "Aspergillus fumigatus", "Yes"),
    ("C/C(=N\\OC(Cn1ccnc1)c1ccc(Cl)cc1Cl)c1ccc(OCCN2CCOCC2)cc1 (stereo unspecified)", "Aspergillus fumigatus", "No"),
]

Shifting focus to the molecule that follows.
Problem: Lab note: confirm whether the reported MFC for this molecule is below 8 µg/mL, equality not counting. molecule: C/C(=N\OC(Cn1ccnc1)c1ccc(F)cc1F)c1c(F)cccc1F (stereo unspecified)
Solution: No

---

System: Candida parapsilosis
assay.details: In vitro antifungal activity against Candida parapsilosis 2372E
Format: functional
assay.context: Lodderomyces parapsilosis
Measured MFC of individual entries
Respond with the bare value in µg/mL.

# molecule, MFC / µg/mL
data = [
    ("C/C(=N\\OC(Cn1ccnc1)c1ccc(Cl)cc1Cl)c1ccc(Cl)cc1Cl (stereo unspecified)", 16),
]

// below: MFC requested for another molecule
Problem: Kindly state the measured MFC obtained for C/C(=N\OC(Cn1ccnc1)c1ccc(F)cc1F)c1ccc(OCCN2CCOCC2)cc1 (stereo unspecified) with Candida parapsilosis.
Solution: 2

---

Test system: Aspergillus fumigatus
assay.details: microbe, parasite or virus in culture
Type: functional
Measured MIC of individual entries
Respond with the bare value in µg/mL.

# compound, measurement.label, quantity.unit, result.number
records = [
    ("C/C(=N\\OC(Cn1ccnc1)c1ccc(Cl)cc1Cl)c1ccc(OCCN2CCOCC2)cc1 (centres undefined)", "MIC", "µg/mL", 32),
]

Problem: Would you mind telling me what MIC value was observed for C/C(=N\OC(Cn1ccnc1)c1ccc(Cl)cc1Cl)c1ccc(Cl)cc1Cl (centres undefined) ?
Solution: 8

Problem: Would you mind telling me what MIC value was observed for Cl.Fc1ccc(/C=N/OC(Cn2ccnc2)c2ccc(F)cc2F)c(F)c1 (centres undefined) ?
Solution: 16

---

Tested on: Nakaseomyces glabratus
assay.details: microbe, parasite or virus in culture
Assay type: functional
Description: In vitro antifungal activity against Candida glabrata 2375E
Measured log10 MIC of individual entries
All values: base-10 log of MIC in mg/L.

Problem: Would you mind telling me what log10 MIC value was observed for OC(Cn1cncn1)(Cn1cncn1)c1ccc(F)cc1F ?
Solution: 0.30

Problem: Would you mind telling me what log10 MIC value was observed for C/C(=N\OC(Cn1ccnc1)c1ccc(F)cc1F)c1c(F)cccc1F (stereo unspecified) ?
Solution: -1.52

Problem: Would you mind telling me what log10 MIC value was observed for C/C(=N\OC(Cn1ccnc1)c1ccc(F)cc1F)c1cc(F)ccc1F (stereo unspecified) ?
Solution: -1.52

Problem: Would you mind telling me what log10 MIC value was observed for C/C(=N\OC(Cn1ccnc1)c1ccc(F)cc1F)c1ccc(OCCN2CCOCC2)cc1 (stereo unspecified) ?
Solution: -0.60

---

Test system: Trichophyton benhamiae
assay.details: In vitro antifungal activity against Trichophyton mentagrophytes CM84
Assay type: functional, Arthroderma benhamiae
measurement.label: log10 MIC (log10 of the value in µg/mL)
All values: base-10 log of MIC in µg/mL.

# molecule, assayed.target, measurement.label, result.number
records = [
    ("C/C(=N\\OC(Cn1ccnc1)c1ccc(F)cc1F)c1c(F)cccc1F (stereo unspecified)", "Trichophyton benhamiae", "log10 MIC", 0.30),
    ("C/C(=N\\OC(Cn1ccnc1)c1ccc(Cl)cc1Cl)c1ccc(Cl)cc1Cl (stereo unspecified)", "Trichophyton benhamiae", "log10 MIC", 0.90),
    ("C/C(=N\\OC(Cn1ccnc1)c1ccc(Cl)cc1Cl)c1ccc(OCCN2CCOCC2)cc1 (stereo unspecified)", "Trichophyton benhamiae", "log10 MIC", 0.60),
    ("C/C(=N\\OC(Cn1ccnc1)c1ccc(F)cc1F)c1ccc(OCCN2CCOCC2)cc1 (stereo unspecified)", "Trichophyton benhamiae", "log10 MIC", 0.30),
    ("Clc1ccc(C(Cn2ccnc2)O/N=C/c2ccc(OCCN3CCOCC3)cc2)c(Cl)c1 (stereo unspecified)", "Trichophyton benhamiae", "log10 MIC", 0.60),
]

Problem: Would you mind telling me what log10 MIC value was observed for Fc1ccc(/C(Cn2ccnc2)=N/OC(Cn2ccnc2)c2ccc(F)cc2F)c(F)c1 (stereo unspecified) ?
Solution: 1.81

Problem: Would you mind telling me what log10 MIC value was observed for Clc1ccc(CO/N=C(\Cn2ccnc2)c2ccc(Cl)cc2Cl)c(Cl)c1 ?
Solution: 0.30

Problem: Would you mind telling me what log10 MIC value was observed for C/C(=N\OC(Cn1ccnc1)c1ccc(F)cc1F)c1ccc(F)cc1F (stereo unspecified) ?
Solution: 0.00

Problem: Would you mind telling me what log10 MIC value was observed for OC(Cn1cncn1)(Cn1cncn1)c1ccc(F)cc1F ?
Solution: -0.30

Problem: Would you mind telling me what log10 MIC value was observed for C/C(=N\OC(Cn1ccnc1)c1ccc(F)cc1F)c1cc(F)ccc1F (stereo unspecified) ?
Solution: -0.60
